tested on: Mus musculus; assay: Anti-inflammatory activity in mouse assessed as inhibition of xylene-induced ear edema at 30 mg/kg, ip dosed prior to xylene challenge and measured 1 hr post xylene injection relative to control; type: functional
Decision: inhibition in vivo at 30 mg/kg compared against 60%; not below it gives 1.0, below it gives 0.0.

# count of solved cases: 4
test_smiles=CN(C)c1ccc(C(=O)/C=C/C2=Cc3c(ccc4ccccc34)OC2)cc1 class_assignment=1.0
test_smiles=CCc1ccc(C(=O)/C=C/C2=Cc3ccccc3OC2)cc1 class_assignment=1.0
test_smiles=O=C(/C=C/C1=Cc2ccccc2OC1)c1cccc(Br)c1 class_assignment=0.0
test_smiles=O=C(/C=C/C1=Cc2ccccc2OC1)c1ccccc1Br class_assignment=0.0

input: Record `Cc1ccc(C(=O)/C=C/C2=Cc3ccccc3OC2)cc1` ; criterion: inhibition in vivo at 30 mg/kg no lower than 60%. Met?
output: 0.0

input: Record `COc1ccc(C(=O)/C=C/C2=Cc3c(ccc4ccccc34)OC2)cc1OC` ; criterion: inhibition in vivo at 30 mg/kg no lower than 60%. Met?
output: 0.0

input: Record `O=C(/C=C/C1=Cc2ccccc2OC1)c1cccc(Cl)c1` ; criterion: inhibition in vivo at 30 mg/kg no lower than 60%. Met?
output: 0.0

input: Record `O=C(/C=C/C1=Cc2ccccc2OC1)c1cccc(F)c1` ; criterion: inhibition in vivo at 30 mg/kg no lower than 60%. Met?
output: 0.0

###

assay: Selectivity index, ratio of IC50 for COX1 (unknown origin) to IC50 for COX2 (unknown origin); settings: Homo sapiens
The following compounds are listed with their measured Ratio IC50 values.
Lab note: record just the number, no unit beside it.

Before answering, review these 3 worked examples.
test_smiles=O=C(/C=C/C1=Cc2c(ccc3ccccc23)OC1)c1ccc([N+](=O)[O-])cc1 measured_parameter="Ratio IC50" assay_value=31.1
test_smiles=O=C(/C=C/C1=Cc2c(ccc3ccccc23)OC1)c1ccc(Cl)cc1Cl measured_parameter="Ratio IC50" assay_value=27.3
test_smiles=O=C(/C=C/C1=Cc2c(ccc3ccccc23)OC1)c1ccccc1F measured_parameter="Ratio IC50" assay_value=20.7

input: Which Ratio IC50 reading was recorded for the compound `CCc1ccc(C(=O)/C=C/C2=Cc3c(ccc4ccccc34)OC2)cc1` ?
output: 20.7

input: Which Ratio IC50 reading was recorded for the compound `COc1ccc(C(=O)/C=C/C2=Cc3c(ccc4ccccc34)OC2)cc1` ?
output: 23.8

input: Which Ratio IC50 reading was recorded for the compound `O=C(/C=C/C1=Cc2ccccc2OC1)c1ccc(F)cc1` ?
output: 22.5

input: Which Ratio IC50 reading was recorded for the compound `COc1ccc(C(=O)/C=C/C2=Cc3ccccc3OC2)cc1` ?
output: 20

input: Which Ratio IC50 reading was recorded for the compound `COc1ccc(C(=O)/C=C/C2=Cc3ccccc3OC2)cc1OC` ?
output: 15.4

input: Which Ratio IC50 reading was recorded for the compound `CCc1ccc(C(=O)/C=C/C2=Cc3ccccc3OC2)cc1` ?
output: 15.9

input: Which Ratio IC50 reading was recorded for the compound `O=C(/C=C/C1=Cc2ccccc2OC1)c1ccc(Br)cc1` ?
output: 17.2

input: Which Ratio IC50 reading was recorded for the compound `O=C(/C=C/C1=Cc2ccccc2OC1)c1ccc(C(F)(F)F)cc1` ?
output: 9.34

input: Which Ratio IC50 reading was recorded for the compound `O=C(/C=C/C1=Cc2c(ccc3ccccc23)OC1)c1ccc(C(F)(F)F)cc1` ?
output: 26.1

###

test system: Mus musculus; assay: Anti-inflammatory activity in mouse assessed as inhibition of xylene-induced ear edema at 30 mg/kg, ip dosed prior to xylene challenge and measured 1 hr post xylene injection relative to control; format: functional
Decision: inhibition in vivo at 30 mg/kg compared against 70%; not below it gives met, below it gives not met.

# count of solved cases: 3
test_smiles=Cc1ccc(C(=O)/C=C/C2=Cc3c(ccc4ccccc34)OC2)cc1 class_assignment=met
test_smiles=CN(C)c1ccc(C(=O)/C=C/C2=Cc3ccccc3OC2)cc1 class_assignment="not met"
test_smiles=O=C(/C=C/C1=Cc2c(ccc3ccccc23)OC1)c1ccccc1Cl class_assignment="not met"

input: Record `O=C(/C=C/C1=Cc2ccccc2OC1)c1ccc([N+](=O)[O-])cc1` ; criterion: inhibition in vivo at 30 mg/kg no lower than 70%. Met?
output: not met

input: Record `O=C(/C=C/C1=Cc2c(ccc3ccccc23)OC1)c1ccccc1F` ; criterion: inhibition in vivo at 30 mg/kg no lower than 70%. Met?
output: met

input: Record `COc1ccc(C(=O)/C=C/C2=Cc3c(ccc4ccccc34)OC2)cc1` ; criterion: inhibition in vivo at 30 mg/kg no lower than 70%. Met?
output: met

###

system: Mus musculus; experiment: Anti-inflammatory activity in mouse assessed as inhibition of xylene-induced ear edema at 30 mg/kg, ip dosed prior to xylene challenge and measured 1 hr post xylene injection relative to control; format: functional
The following compounds are listed with their measured inhibition in vivo at 30 mg/kg values.
Give the value in % but do not write % after it.

test_smiles=O=C(/C=C/C1=Cc2c(ccc3ccccc23)OC1)c1ccc(Cl)cc1Cl measured_parameter="inhibition in vivo at 30 mg/kg" assay_value=84.1
test_smiles=CCc1ccc(C(=O)/C=C/C2=Cc3c(ccc4ccccc34)OC2)cc1 measured_parameter="inhibition in vivo at 30 mg/kg" assay_value=83.1
test_smiles=O=C(/C=C/C1=Cc2ccccc2OC1)c1ccccc1F measured_parameter="inhibition in vivo at 30 mg/kg" assay_value=64.4
test_smiles=Nc1ccc(C(=O)/C=C/C2=Cc3ccccc3OC2)cc1 measured_parameter="inhibition in vivo at 30 mg/kg" assay_value=52.6

input: Fill in the recorded inhibition in vivo at 30 mg/kg for this compound, with Mus musculus as test system: `O=C(/C=C/C1=Cc2ccccc2OC1)c1ccc(Br)cc1`
output: 66

input: Fill in the recorded inhibition in vivo at 30 mg/kg for this compound, with Mus musculus as test system: `O=C(/C=C/C1=Cc2c(ccc3ccccc23)OC1)c1ccccc1Br`
output: 79.8

###

The following compounds are listed with their measured inhibition in vivo at 30 mg/kg values.
system: Mus musculus; experiment: Anti-inflammatory activity in mouse assessed as inhibition of xylene-induced ear edema at 30 mg/kg, ip dosed prior to xylene challenge and measured 1 hr post xylene injection relative to control; assay type: functional
Give the value in % but do not write % after it.

Before answering, review these 2 worked examples.
test_smiles=O=C(/C=C/C1=Cc2c(ccc3ccccc23)OC1)c1cccc(F)c1 measured_parameter="inhibition in vivo at 30 mg/kg" unit_text=% assay_value=70.1
test_smiles=O=C(/C=C/C1=Cc2ccccc2OC1)c1ccc(F)cc1 measured_parameter="inhibition in vivo at 30 mg/kg" unit_text=% assay_value=65.6

input: Fill in the recorded inhibition in vivo at 30 mg/kg for this compound, with Mus musculus as test system: `O=C(/C=C/C1=Cc2c(ccc3ccccc23)OC1)c1cccc(Br)c1`
output: 67.9

input: Fill in the recorded inhibition in vivo at 30 mg/kg for this compound, with Mus musculus as test system: `Cc1ccc(C(=O)/C=C/C2=Cc3c(ccc4ccccc34)OC2)cc1C`
output: 54.2

input: Fill in the recorded inhibition in vivo at 30 mg/kg for this compound, with Mus musculus as test system: `O=C(/C=C/C1=Cc2c(ccc3ccccc23)OC1)c1ccc(Br)cc1`
output: 57.5

input: Fill in the recorded inhibition in vivo at 30 mg/kg for this compound, with Mus musculus as test system: `O=C(/C=C/C1=Cc2c(ccc3ccccc23)OC1)c1ccc(Cl)cc1`
output: 67.1

input: Fill in the recorded inhibition in vivo at 30 mg/kg for this compound, with Mus musculus as test system: `O=C(/C=C/C1=Cc2ccccc2OC1)c1ccccc1Cl`
output: 52.3

input: Fill in the recorded inhibition in vivo at 30 mg/kg for this compound, with Mus musculus as test system: `O=C(/C=C/C1=Cc2c(ccc3ccccc23)OC1)c1cccc(Cl)c1`
output: 75

###

tested on: Mus musculus; assay: Anti-inflammatory activity in mouse assessed as inhibition of xylene-induced ear edema at 30 mg/kg, ip dosed prior to xylene challenge and measured 1 hr post xylene injection relative to control; type: functional
Measured Parameter: inhibition in vivo at 30 mg/kg
Kindly format the answer as number then unit.

input: Which inhibition in vivo at 30 mg/kg reading was recorded for the compound `O=C(/C=C/C1=Cc2ccccc2OC1)c1ccc(C(F)(F)F)cc1` ?
output: 75.5%

input: Which inhibition in vivo at 30 mg/kg reading was recorded for the compound `Cc1ccc(C(=O)/C=C/C2=Cc3ccccc3OC2)cc1C` ?
output: 48.1%

input: Which inhibition in vivo at 30 mg/kg reading was recorded for the compound `O=C(/C=C/C1=Cc2ccccc2OC1)c1ccc(Cl)cc1` ?
output: 56.1%

###

tested on: Mus musculus; assay: Anti-inflammatory activity in mouse assessed as inhibition of xylene-induced ear edema at 30 mg/kg, ip dosed prior to xylene challenge and measured 1 hr post xylene injection relative to control; type: functional
Measured Parameter: inhibition in vivo at 30 mg/kg (%)
Give the value in % but do not write % after it.

test_smiles=O=C(/C=C/C1=Cc2c(ccc3ccccc23)OC1)c1ccc(C(F)(F)F)cc1 tgt="Mus musculus" measured_parameter="inhibition in vivo at 30 mg/kg" assay_value=83.6
test_smiles=COc1ccc(C(=O)/C=C/C2=Cc3ccccc3OC2)cc1OC tgt="Mus musculus" measured_parameter="inhibition in vivo at 30 mg/kg" assay_value=67.6
test_smiles=COc1ccc(C(=O)/C=C/C2=Cc3ccccc3OC2)cc1 tgt="Mus musculus" measured_parameter="inhibition in vivo at 30 mg/kg" assay_value=66.2
test_smiles=O=C(/C=C/C1=Cc2ccccc2OC1)c1ccc(Cl)cc1Cl tgt="Mus musculus" measured_parameter="inhibition in vivo at 30 mg/kg" assay_value=53.3
test_smiles=Nc1ccc(C(=O)/C=C/C2=Cc3c(ccc4ccccc34)OC2)cc1 tgt="Mus musculus" measured_parameter="inhibition in vivo at 30 mg/kg" assay_value=67.1

input: Fill in the recorded inhibition in vivo at 30 mg/kg for this compound, with Mus musculus as test system: `O=C(/C=C/C1=Cc2c(ccc3ccccc23)OC1)c1ccc([N+](=O)[O-])cc1`
output: 76.3

input: Fill in the recorded inhibition in vivo at 30 mg/kg for this compound, with Mus musculus as test system: `O=C(/C=C/C1=Cc2c(ccc3ccccc23)OC1)c1ccc(F)cc1`
output: 57.3

// data source = ChEMBL document CHEMBL4387748
